endpoint: melting point

Worked cases, answers included:
CCOC(=O)c1ccc(OCC2CN(c3cccnn3)CCO2)cc1 (stereo not given) :: 110 °C
Cc1nc(-c2ccc(C#N)cc2)cn1-c1ccc(C#N)cc1 :: 212 to 220 °C
CCOC(=O)c1c(C(=O)OCC)c(-c2ccc(OC)c(OC)c2)c2c(OC)c(OC)c(OC)cc2c1O :: 138 to 140 °C
O=Cc1ccccc1P(=O)(c1ccccc1)c1ccccc1 :: 131 to 134 °C

Next compound, please.
The recorded melting point for Cn1cccc1CN1CCCC1=O is 44.5 to 47.5 °C

###

Kindly state melting point for each of the entries shown.

CCCC(=O)C(=C1NCCCS1)[N+](=O)[O-] :: 54 to 58.5 °C
CC(C)(C)OC(=O)N1CCN(c2ccc(C#N)c(F)c2)CC1 :: 130 to 131 °C
CCOc1nc(=O)n(C(=O)NC)s1 :: 152 °C
CCOC(=O)c1cc2c(cc(C)n2OC)nc1C(=O)OCC :: 94.5 to 96.5 °C
CC1CN(C)c2c3c(nc4cccc(c24)O1)CCCC3 (configuration not stated) :: 125 to 126 °C

Provide each entry's melting point from the list below.
1. C[C@H](c1ccccc1)n1c(=O)[nH]c2ncc(-c3ccc(-c4nc[nH]n4)cc3)nc21
2. CC(C)c1ccc(S(=O)(=O)n2c(Cc3cccc(C(=O)O)c3)cc3cc(Cl)ccc32)cc1

Return:
["258 to 260 °C", "170 °C"]

###

endpoint: melting point

Provide each entry's melting point from the list below.
1. Cc1cccc(NC(=O)NC2N=C(c3ccccc3F)c3ccccc3N(Cc3ccccn3)C2=O)c1 (racemic)
2. Cc1cccnc1-n1c(S(=O)Cc2ccccc2N(C)C)nc2c1CCC2 (stereo not given)
3. CC(=O)Oc1cc(C(C)C)ccc1C1(OC(C)=O)C(=O)c2cccc([N+](=O)[O-])c2C1=O (stereo not given)
4. C=CCOC(=O)c1c(C)c(OC)cc(O)c1C=O
5. CC(C)(C)c1cc(C=C2SC(=S)N(N)C2=O)ccc1O

Return:
215 to 216 °C
119 to 120 °C
94 to 98 °C
73 to 74 °C
> 225 °C

###

Kindly state melting point for each of the entries shown.
Numbers only, in °C.

COCCOC(=O)C1=C(C)NC(C)=C(C(=O)OCC(F)(F)F)C1c1cccc([N+](=O)[O-])c1 (stereo not given) :: 169

The recorded melting point for CC1C(c2ccccc2)OC(C)(C)N1C(=O)C(Cl)Cl (stereo not given) is 126

###

endpoint: melting point

Worked cases, answers included:
CC(=O)SCCC(=O)[C@@H]1CCCC[C@H]1C(=O)O (relative stereo) :: 65 to 68 °C
CSc1c(C)[nH]c2c(C)cccc12 :: 32 to 33 °C
Cc1ccnc(-c2nc(=O)c3ccc(Cl)cc3s2)c1 :: 246 to 247 °C
Cn1c(C(=O)N2CCC[C@@H]3CCCC[C@H]32)cc2ccccc21 (relative stereo) :: 87 to 90 °C
CC1(C)CN2C(=NS(=O)C2=Nc2ccc(Cl)cc2)S1 (stereo unspecified) :: 121 to 124 °C
CCOC(=O)c1cc(NCc2c(C)cccc2C)c2nc(COC)n(C)c2c1 :: 134 to 135 °C

Provide each entry's melting point from the list below.
1. Cc1ccc(N2N=C3c4cc(OCCCN(C)C)ccc4CCC3CC2=O)cc1 (stereo unspecified)
2. COc1cccc(Oc2cccc(NC(=O)c3ccn4c3CSC4c3cccnc3)c2)c1 (stereo unspecified)
3. O=C1C(=Cc2ccccc2)COc2ccccc21

Return:
1: 159 to 162 °C; 2: 130 °C; 3: 112 to 113 °C

Provide each entry's melting point from the list below.
1. CC(C)=CCN1CCc2c(sc(N)c2C(=O)c2ccc(Cl)cc2)C1
2. CC(C)(C)c1ccc2c(c1)C=C(C(=O)O)C(C(F)(F)F)S2 (stereo unspecified)
3. CC(C)Oc1c(-c2ccc(S(C)(=O)=O)cc2)cnn(-c2cc(F)ccc2F)c1=O
4. CC1(C)OCC(N(c2nc(Cl)nc(N(C3COC(C)(C)OC3)C3COC(C)(C)OC3)n2)C2COC(C)(C)OC2)CO1
5. CC(C)(C)OC(=O)NCCCC(=O)NCCC(=O)OCc1ccccc1

Return:
1: 118 to 120 °C; 2: 184 to 185 °C; 3: 161 to 164 °C; 4: 133 to 135 °C; 5: 54 to 55 °C

###

Kindly state melting point for each of the entries shown.

Worked cases, answers included:
O=C(NC1CCCCC1)N1C(=O)C2(CCCCC2)NC12CCCCC2 :: 106 to 109 °C
C[C@H](Oc1ccc(-c2csc(S(N)(=O)=O)c2)cc1)[C@H](O)CCc1cccnc1 :: 151 to 152 °C
CC1=C(c2ccncc2)SC(OC(=O)c2cccc(Cl)c2)C(=O)N1 (stereo not given) :: 142 to 143 °C
CS(=O)(=O)c1ccc(-c2[nH]c(C(O)(C(F)(F)F)C(F)(F)F)nc2-c2ccccc2)cc1 :: 223 to 225 °C
Cc1nc(Cc2ccccc2)c(CO)c(CO)c1O :: 158 to 159 °C
CCOC(=O)CCCCOc1ccc(OCC)cc1C=O :: 80 to 81 °C
O=C(O)C1=CSC2C(=Cc3cn4c(n3)CCCCC4)C(=O)N12 (stereo not given) :: > 250 °C
CC(C)CNC(=O)C(C)NC(=O)C(C)NC(=O)C(C)NC(=O)CCC(=O)O (stereo not given) :: 283 to 286 °C
O=C1c2ccccc2Cc2ccccc2C1Br (stereo not given) :: 82 to 84 °C
CCN1c2ncc(COc3cccnc3)cc2C(=O)N(C)c2ccc(Cl)nc21 :: 183 to 184 °C

Provide each entry's melting point from the list below.
1. CCc1cccc2c(C(=O)c3cccc(Cl)c3Cl)c(C)n(CCCS(=O)(=O)N(C)C)c12
2. Cc1n[nH]c(/C=C/c2ccccc2)n1
3. Oc1ccc(Oc2cnc3cc(F)ccc3n2)cc1
4. Oc1ccc(-c2ccc(-c3ccc(O)cc3)c(-c3ccc(OCCN4CCCC4)cc3)n2)cc1
5. C=Cc1ccc2c(c1)CC(NC(=O)OC(C)(C)C)CC2 (stereo not given)
6. COc1cc2c(cc1OC)CCC(C(=O)N1CCN(C(=O)c3ccc(OC)c(OC)c3OC)CC1)=C2

Return:
1: 18 °C; 2: 131 to 134 °C; 3: 78 to 79 °C; 4: 145 to 150 °C; 5: 89 to 91 °C; 6: 166 to 167 °C

###

Kindly state melting point for each of the entries shown.

Worked cases, answers included:
CC(=O)Nc1cc(N(C)C)ccc1C1(c2ccc(N(C)C)cc2N(C)C)OC(=O)c2ccccc21 (stereo not given) :: 97 to 136 °C
O=C1CC2(CCCC2)c2ccc(Cl)cc21 :: 54 °C
O=C(O)C(=O)c1cnsn1 :: 130 to 133 °C
CNc1ccc(C=Cc2ccc(N)cc2)cc1 :: 144 to 145 °C

Provide each entry's melting point from the list below.
1. CCCc1nc2c(N)nc3ccccc3c2n1CCOCCCS(C)=O (stereo not given)
2. COc1ccc(Cn2cc(C)c3ccc(C(=O)c4ccccc4)cc32)cc1
3. Cc1c(SCCCSCCn2c([N+](=O)[O-])cnc2C)ccnc1CNc1ncncc1Cl
4. COC(=O)c1cc(OC)c(OC)c([N+](=O)[O-])c1
5. CCc1ccc(OC(C)=O)c(C2(OC(C)=O)C(=O)c3ccccc3C2=O)c1
6. CN(C)C(=O)C(C)(C)n1cc(Cl)c(-c2ccccc2Cl)n1

Return:
148 to 151 °C
146 to 147 °C
119 to 121 °C
75 to 76 °C
153 to 154 °C
161 to 163 °C

###

Kindly state melting point for each of the entries shown.

Worked cases, answers included:
Cc1ccc(-c2nnn(C(c3ccccc3)(c3ccccc3)c3ccccc3)n2)cc1 :: 172 to 175 °C
Cc1ccc2c(=O)nc(-c3cc(S(C)(=O)=O)cc(CCC(=O)OC(C)(C)C)n3)sc2c1 :: 178 °C
Cc1cc(F)ccc1-c1ccc(S(=O)(=O)N2c3ccccc3CC2C(=O)NCc2ccccc2N)cc1 (stereo not given) :: 92 to 96 °C
CCCCC(C(C)C)C(CN)CC(=O)O (stereo not given) :: 160 to 170 °C

The recorded melting point for NC(=O)C1CCc2[nH]c3ccc(Cl)cc3c2C1 (stereo not given) is 247 to 248 °C

###

endpoint: melting point

Worked cases, answers included:
COC(=O)CNC(=O)c1ccc(Cl)c(Cl)c1 :: 133 to 134 °C
COc1cc2ncc(C#N)c(Nc3c(C)cccc3O)c2cc1OC :: 245 to 247 °C
Cc1cccc(-c2nc(-c3ccc(S(C)=O)cc3)sc2-c2cc(C)nc(C)c2)c1 (stereo unspecified) :: 133 to 134 °C

Provide each entry's melting point from the list below.
1. COc1cc(C(=O)NCCc2cccc(C)c2)cc(OC)c1OC
2. Fc1cc2c(Nc3ccc(F)c(C(F)(F)F)c3)ncnc2cn1
3. CN(C(=O)OC(C)(C)C)c1ccc(C#CCCCOS(C)(=O)=O)cc1
4. Cc1cccc(-c2nsc(C(=O)O)c2C(=O)O)c1
5. Cc1nc(-n2cnn(Cc3ccc(F)cc3)c2=O)sc1C(=O)NCc1nccs1

Return:
105 to 108 °C
247 to 249 °C
85 to 87 °C
166 to 167 °C
189 to 190 °C
